system: SN12C renal; assay: NCI tumour cell line growth inhibition, 48 h; in the data active means GI50 below about 0.43 µM; inactive means the rest
Pick one and only one: active, inactive

| smiles.representation | classification |
| --- | --- |
| O=C1C(Cl)=C(Nc2cccc(O)c2)C(=O)N1c1ccc(Cl)cc1Cl | inactive |
| O=C(Nc1ccc(O)c(NS(=O)(=O)c2ccc(F)cc2)c1)c1ccc(-c2ccccc2)cc1 | inactive |
| Cc1cccc2c1NC(=O)C2(c1ccc(O)cc1)c1ccc(O)cc1 | active |
| [O]=[W](=[O])([OH])[OH] | inactive |
| COc1cc(/C=N/Nc2ncnc3c2cnn3Cc2ccccc2)ccc1O | inactive |

Input: // outcome(item) with item = N#C/C(=C\c1ccc([N+](=O)[O-])s1)c1nc2cc(Br)ccc2s1
Output: active

Input: I'd appreciate the recorded outcome for COc1cc(CCNc2nc3cc(N)cc(N)c3nc2-c2ccccc2)cc(OC)c1 from this test.
Output: inactive

Input: Identify the outcome logged in this assay for the molecule shown: COc1ccc(C(=O)c2cc(OC)c(OC)c(OC)c2)cc1/C=C/C(=O)c1ccc2c(c1)OCO2
Output: inactive

Input: How was O=C1CCCC(=O)C1C(=O)c1ccc(C(F)(F)F)cc1[N+](=O)[O-] classified in this test?
Output: inactive

Input: Dear all, I need the recorded test outcome for CCc1cccc(CC)c1NC(=O)c1ccn2c1CCc1cnc(Nc3ccc(N4CCN(C)CC4)cc3OC)nc1-2 , thank you.
Output: inactive

Data provenance: PubChem BioAssay (NCI)
